# method: yeast display, Sf9 membrane polyspecificity reagent, FACS + sequencing; frameworks hold sequencing errors
reported.metric: polyreactivity (PSR sort gate)

Example sequences with recorded polyreactivity (PSR sort gate):
QVQLVESGGGLVQAGGSLRLSCAASGITFYDYAMGWYRQAPGKERELVAAISGGGITYYADSVKGRFTISRDNAKNTVYLQMNSLKPEDTAVYYCAADAYGYGGDSWGQGTQVTVSS: low polyreactivity
QDQLVESGVGLVQAGGSLRLSCASSGRIFDPYAMGWYRQAPGKERELVARITWRGGRTYYADSVKVRFTISLDNAKNTVYLQMNSLKPEDTAVFYCNADFYYRYYCAYDYWGQGTQVTVSS: high polyreactivity
QVQLVESGGGLVQAGGSLRLSCAASGSTFFTYAMGWYRQAPGKERELVAAISWSGGTTYYSDSVKWRFTISRDYAKNTDYLQMNSLKPEDTAGYYCASDRDGILKANDYWGQGTQVTVSS: low polyreactivity
QVQLVESGGGLVQAGGSLRLSCAASGRIFVQYVMGWYRPAPGKERELVAAITGSDSTTYYADSVKGRFTISRDNAKNTVYLQMNSLKPEDTAVYYCNKDLWLQDDYWGQGTQVTVSS: low polyreactivity
QVQLVESGGGLVQAGGSLRIICAASGSIFARNAMGWYRQAPGKERELVASITWSGASTYDADSVKGRFTISRDNAMNTVYLQMNSLKPEDTAVYYCAATDQILSLDYSSYEYLGQGTQVTVSS: low polyreactivity
QVQLVESGGGLVQAGGSLSLSCAASGSTFAYYAMGWSRQAPGKERELVAGITWTGGSTYYADSVKGRFTISRDNAKNTVYLQMNSLKPEDTAVYYCAVTYPYGYEYDHWGQGSQVTVSS: low polyreactivity

# batch: return polyreactivity (PSR sort gate) for each of the 7 sequences below
1. QVQLVESGGGLVQAGGSLRLSCAASGSTFGQYAMGWYRQAPGKERELVAAISRNGGRTYYADSVKGRFTISRDNAKNTVYLLMNSLKPEDTAVYYCAAGGFLYVYYRGMYYWGQGTQVTVSS
2. QVQLVESGGGLVQAGGSLGLSCAASGSFFYQNAMGWYRQAPGKDREWVAAISRSGGSTYYADSVMGRFTISRDNAKISVDEQMNSLQPEDTPVYYCAARNSRQGSYSRDFWGQGTQVTVSS
3. QVQLVESGGGLVQAGGSLRLTCAASGRNFPAYVMGWYRQAPGKERELVAGITSASSTYYADSVKGRFTISRDNAKNTVYLQMNSLKPEDTAVYYCAAVGYSVRQRYDYWGQGSQVTVSS
4. QVQLVESGGGLVQAGGSLRLSCAASGLIFFYYTMGWYRQAPGKERELVAAISQSGGRTYYADSVKGRFTISRDNAKNTVYLQMNSLKPEDTAVYYCAAAVRYRGDEFDYWGQGTQVTVSS
5. QVQLVESGGGLVQAGGSLRLSCAASGFTFRAYAMGWYRQAPGKERELVATITRSGGSTFYADSVKGRFTISRDNAKNTVYLQMNSLKPEDTAVYYCAAVYRFPCRYAWYKYDDWGQGTQVTVSS
6. QVQLVESGGGLVQAGGSLRLSCAASGITFGRNTMGWYRQAPGKERELVAAIDSGGNTYADSVKWRFTISRDNAKNTVYLQMNSLKPEDTAVYYCAADIGSWYDYWGQGTQVTVSS
7. QVQLVESGGGLVQSGGSLRLSCAASGSIFIGNTMGWYRQAPGKERELVATIRRSGSRTYYADSVKGRFTISRDNAKHTVYLQMNSLKPEDTAVYYCAAVRLRTSGYKTIYDYWGQGTQVTVSS

Ans:
["high polyreactivity", "high polyreactivity", "high polyreactivity", "low polyreactivity", "high polyreactivity", "low polyreactivity", "low polyreactivity"]

Q: Tell me the measured polyreactivity (PSR sort gate) of `QVQLVESGGGLVQAGGSLRLSCAASGRIFRYYAMGWYRQAPGKERELVAAITGRGTSTYYADSVKGRFTISRDNAKNTVYVQMNSLKPEDTAVYYCAAGSVLRYWAGDYWGQGTQVTVSS` , please.
Ans: low polyreactivity

----------
# method: yeast display, Sf9 membrane polyspecificity reagent, FACS + sequencing; frameworks hold sequencing errors
reported.metric: polyreactivity (PSR sort gate)

QVQLVESGGGLVQAGGSLRLSCAASGITFRRYAMGWYRQAPGKERELVAAITSSGGSTYYADSVKGRFSISRDNAKNTVYLQMNSLKPEDTAVYYCAARAYRVNWSSWYRSGYDYWGQGTQVTVSS: high polyreactivity
QVQLVESGGGLVQAGGSLRLSCAASGITFAYYAMGWYRQAPGKERELVAGISKSGGRTYYADSVKGRFTISRDNAKNTVYVQLNSLKPEYTAVYYCASQDARRIVYDRYYYWGQGTQVTVSS: high polyreactivity

----------
# method: yeast display, Sf9 membrane polyspecificity reagent, FACS + sequencing; frameworks hold sequencing errors
reported.metric: polyreactivity (PSR sort gate)

QVQLVESGGGLVQAGGSLRLSCAASGSISKINAMGWYRQAPGKERELVAAINTGDSTYYADSVKGRFTISRDNAKNTVYLQMNCLKPEDTAVYYCAAEGSPTGYDYWGQGTQVTVSS: low polyreactivity
QVQLVESGGGLVQAGGSLRLSCAASGRIYRGNTKGWYRQAPGKERELVAAITRGGSTSYADSVKGRFTISRDNAKNTVYLQMMSLKPEDTAVYYCATRTHGEGTRRDSWGQGTQVTVSS: low polyreactivity
QVQLEESGGGLDQAGGSLRLSCAASGRIFFYNAMGWYRQAPGKERELVAGISRSGTSTYYADSVKGRFTNSRDNAKNTVFLQMNSLKPEDTAVYYCAAAAWSVILWREMDYWGQGTQVTVSS: low polyreactivity

----------
# method: yeast display, Sf9 membrane polyspecificity reagent, FACS + sequencing; frameworks hold sequencing errors
reported.metric: polyreactivity (PSR sort gate)

QFKLVESGGGLVQAGGSLRLICAASGITLNRNAMGRYRQAPGKEMELVARISRRGGTTYYADSVKGRFTISRDKAKNTVYLQMNSLKPEDTAVYYCNAGPYGGNPFDYWGQGTQVTVSS: high polyreactivity
QVQLVESGGGLVQAGGSLRLSCAASGLTFYANAMGWYRQAPGKERELVATISVGTDSTNYADSVKGRFTISRDNAKYTVYLQMNRLKPEDTAVYYCNALYEEYYAQDPYDYWGQGTQVTVSS: high polyreactivity
QVQLVESGGGLVQAGGSLRLSCAASGFIFRYYAMGWYRQAPGKERELVAAISGNGGNTYYADSVKGRFTISRDNAKNTVYLQMNSLKPEDTAVYYCNRAPGYRGGRYDYWGQGTQVTVSS: high polyreactivity

----------
# method: yeast display, Sf9 membrane polyspecificity reagent, FACS + sequencing; frameworks hold sequencing errors
reported.metric: polyreactivity (PSR sort gate)

Example sequences with recorded polyreactivity (PSR sort gate):
QVQLVESGGGLVQAGGSLRLSCAASGFTFSYYAMGWYRQAPGKERELVAAISGSGTRTYYADSVKGRFTISRDNAKNTVYLQMNSLKPEDTAVYYCAADLYVTYDYWGQGTQVTVSS: high polyreactivity
QVQLVESGGGLVQAGVSLRLSCAASGSIFDFYAMGWYRQAPGKERELVATITASGGSTYYADSVKGRFTISRDNAKNTVYLQMNSLKPEDTAVYYCNADSVYWGQGTQVTVSS: low polyreactivity
QVQLVESGGGLVQAGGSLRLSCAASGSIFPRYAMGWYRQAPGKEREFVAAITGSGSSTYYADSVKGRFTISRDNAKNTVYLQMNSLKPEDTAVYYCAARKARPPFPHPFDYYWGQGTQVTVSS: low polyreactivity
QVQLVESGGGLVQAGGSLRLICAASGLIFKFYAMGWYRQAPGKERELVASIRGSGDNTYYADSVKGRFTISRDNAKNTVYLQMNSLKPEDTAVYYCAADWLYDYGEYYYWGQGTQVTVSS: high polyreactivity
QVQLVESGGGLVQAGGSLRLTCAASGSTFRWYAMGWYRPAPGKERELVAVITSGASTNYADSVKGRFTISRDNAKNTVYLQMNSLKPEDTAVYYCNRVPYFRWKYGYWGQGTQVTVSS: high polyreactivity
QVQLIESGGGLVQAGGSLRLSCAASGSTCDRNSMGWYRPAPGKERELVAAIDSDVNTYYADSVKGRFTISRDKAKNTVYLQMNSLTPEDTAVYYCAADYYSWPYDYWGQGTQVTVSS: low polyreactivity
QVQLVESGGGLVQAGGTLRLSCAASGLIFKKYTMGWYRQAPGKERELVASISKSGGSTYYADSVKGRFTISRDNAKNTVYLQMISLKPEESAVYYCNRVTHYIRFDYWGQGTQVTVSS: low polyreactivity
QVQLVESGGGLVQAGGSLRLSCAASGFIFVNKAMGWYRQAPGKERELVATISRGGSTNYADSVKGRFTISRDNAKNTVYLQMNSLKPEDTAVYYCNARRSVKVYGVDYWGQGTQVTVSS: high polyreactivity
QVKLVESGGGLVQAGGSLRLSCAASGNTLYFNAMGWYRQAPGKERELVADISWGGGSTDYADSVKGRFTISRDNAKNTVYLQMNSLKPEDTAVYYCAADILSLPEYDYWGQGTQVTVSS: low polyreactivity
QVQLVESGVGLVQAGGSLRISCAASGGTFLWYAMGRYRQAPGKERELVADITYSGGSTYYADSVKGRFTISRDNAKNTVYLQMNSLKPEDTAVYYCATRGVSPSRPGYYWGQGTQVTVSS: high polyreactivity

# batch: return polyreactivity (PSR sort gate) for each of the 5 sequences below
1. QVQLVESGGGLVQAGGSLRLSCAASGRISYYYMGWYRQAPGKERELVAAISWNGGRTYYADSVKGRFTISRDNAKNTVYLQMNSLKPEDTAVYYCAAYTYSFRANHDYWGQGTQVTVSS
2. QVQLVESGGGLVQAGGSLRLSCAPSGSTFRTYTMGWYIQAPGKERELVAAITGRGGSTYYADSVKGRFTISRDTAKNTVYFQMNSLKREDTAVYYCAALYGGQTKHDFWGQGTQVTVSS
3. QVQLVESGGGLVQAGGSLRLSCAASGITFTYYVMGWYRQAPGKERELVAAISSGGRTYYADSVKGRFTISRDNAKNTVYLEMNSLKPEDTAVYYCNADQYLRYFGRYYRSGEYWGQGTQVTVSS
4. QVQLVESGGGLVQAGGCLRISCAASGSTFPNYAMGWYREAPGKERELVARISYNVGRTYYADSVKGRFTISRDNAKNTVYLQMNSLKPEDTAVYYCAAGVGWRYRVRWYYSLGDYWGQGTQVTVSS
5. QVQLVESGGGLVQAGGILRLSCAASGRTFDSNAMGWYRQAPGKERELVAAISWSGGSTYYADSVKGRFTISRDNAKNTVYLQMNSLKPEDTAVYYCNRLGRHAPATRYGYWGQGTQVTVSS

Ans:
["high polyreactivity", "low polyreactivity", "high polyreactivity", "high polyreactivity", "high polyreactivity"]

Reference source for all entries: the nanobody polyreactivity screen of Harvey et al. (2022)
